Reference source for all entries: patent US20030091584A1

Molecular target: F protein of wild type RSV A/Long (respiratory syncytial virus strain …, UniProt P12568 26-574)
Sequence (P12568 26-574): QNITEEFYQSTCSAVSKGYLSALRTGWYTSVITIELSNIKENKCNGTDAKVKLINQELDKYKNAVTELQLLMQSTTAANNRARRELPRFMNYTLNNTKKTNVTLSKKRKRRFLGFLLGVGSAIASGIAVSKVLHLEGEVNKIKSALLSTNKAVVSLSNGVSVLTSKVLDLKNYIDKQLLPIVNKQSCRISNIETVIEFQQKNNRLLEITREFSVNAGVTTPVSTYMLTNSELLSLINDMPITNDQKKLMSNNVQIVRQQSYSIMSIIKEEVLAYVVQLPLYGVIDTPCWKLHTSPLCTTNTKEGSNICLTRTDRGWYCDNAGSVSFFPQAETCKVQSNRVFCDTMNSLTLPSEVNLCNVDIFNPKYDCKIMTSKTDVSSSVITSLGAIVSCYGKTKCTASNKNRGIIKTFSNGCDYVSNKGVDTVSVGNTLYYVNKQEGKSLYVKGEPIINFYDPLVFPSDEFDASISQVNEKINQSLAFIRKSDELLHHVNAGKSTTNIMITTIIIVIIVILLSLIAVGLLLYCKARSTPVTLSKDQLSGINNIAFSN
Assay: cell-based or functional assay
ATTRIBUTE_MEASURED: Fold Difference (Control IC50) (fold)

binder="A12a6 (monoclonal antibody) (antibody, V domains shown, mAb with framework and constant regions of SYNAGIS) VH: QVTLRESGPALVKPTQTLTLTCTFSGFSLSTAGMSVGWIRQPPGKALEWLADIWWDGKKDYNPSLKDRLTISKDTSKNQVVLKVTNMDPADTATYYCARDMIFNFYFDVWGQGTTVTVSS VL: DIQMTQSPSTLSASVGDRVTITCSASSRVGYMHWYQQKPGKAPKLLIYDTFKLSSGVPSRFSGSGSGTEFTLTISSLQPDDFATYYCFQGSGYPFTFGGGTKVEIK" attribute_measured="Fold Difference (Control IC50)" reported_result=15
binder="A17d4 (Fab fragment) (Fab, V domains shown) VH: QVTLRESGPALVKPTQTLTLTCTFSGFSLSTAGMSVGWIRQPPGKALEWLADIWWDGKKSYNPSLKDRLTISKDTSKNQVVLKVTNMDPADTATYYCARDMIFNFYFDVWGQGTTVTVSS VL: DIQMTQSPSTLSASVGDRVTITCLPSSRVGYMHWYQQKPGKAPKLLIYDTMYQASGVPSRFSGSGSGTEFTLTISSLQPDDFATYYCFQFSGYPFTFGGGTKLEIK" attribute_measured="Fold Difference (Control IC50)" reported_result=31
binder="A8c7 (Fab fragment) (Fab, V domains shown) VH: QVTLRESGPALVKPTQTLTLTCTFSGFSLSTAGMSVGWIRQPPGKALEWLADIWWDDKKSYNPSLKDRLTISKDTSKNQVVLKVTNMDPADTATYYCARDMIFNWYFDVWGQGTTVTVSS VL: DIQMTQSPSTLSASVGDRVTITCSASSRVGYMHWYQQKPGKAPKLLIYDTRYQSSGVPSRFSGSGSGTEFTLTISSLQPDDFATYYCFQGSGYPFTFGGGTKLEIK" attribute_measured="Fold Difference (Control IC50)" reported_result=34
binder="A4B4 (monoclonal antibody) (antibody, V domains shown, mAb; also called A4B4/A4B4 (HC/LC)) VH: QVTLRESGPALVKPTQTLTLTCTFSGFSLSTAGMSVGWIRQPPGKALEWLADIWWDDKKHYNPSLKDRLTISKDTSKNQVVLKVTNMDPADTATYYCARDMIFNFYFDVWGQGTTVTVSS VL: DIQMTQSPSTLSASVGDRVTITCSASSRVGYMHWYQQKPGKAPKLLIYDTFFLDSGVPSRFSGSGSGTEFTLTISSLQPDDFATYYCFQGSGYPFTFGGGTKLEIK" attribute_measured="Fold Difference (Control IC50)" reported_result=35
binder="A8c7 (monoclonal antibody) (antibody, V domains shown, mAb with framework and constant regions of SYNAGIS) VH: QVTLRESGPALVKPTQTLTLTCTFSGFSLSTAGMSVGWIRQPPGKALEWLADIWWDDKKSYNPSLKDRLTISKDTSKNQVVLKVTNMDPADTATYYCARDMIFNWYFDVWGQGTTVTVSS VL: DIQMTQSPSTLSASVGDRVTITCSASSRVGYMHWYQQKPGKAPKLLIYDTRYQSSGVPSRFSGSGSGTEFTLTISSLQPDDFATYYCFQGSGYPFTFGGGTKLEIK" attribute_measured="Fold Difference (Control IC50)" reported_result=14
binder="A12a6 (Fab fragment) (Fab, V domains shown, Fab) VH: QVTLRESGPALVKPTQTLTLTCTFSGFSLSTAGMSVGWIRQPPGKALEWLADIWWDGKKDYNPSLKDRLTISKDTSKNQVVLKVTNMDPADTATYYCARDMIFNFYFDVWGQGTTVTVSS VL: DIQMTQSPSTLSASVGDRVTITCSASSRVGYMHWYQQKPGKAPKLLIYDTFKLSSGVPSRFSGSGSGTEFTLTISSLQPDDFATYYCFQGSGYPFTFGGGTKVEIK" attribute_measured="Fold Difference (Control IC50)" reported_result=17
